# System: Rattus norvegicus
# PROTOCOL DETAILS: In vivo %control of lactate in normal Sprague-Dawley rats after 2 hr at a dose of 30 umol/Kg
# Type: functional
Below, each of the molecules is paired with its reported Control value.
The response must be a number in % with no trailing unit.

MOLECULE | Control / %
C[C@@H]1CN(C(=O)[C@@](C)(O)C(F)(F)F)CCN1/C(=N/C#N)Oc1ccccc1 | 65

Turning now to a further molecule:
# input If you can, please state the reported Control value of `C[C@@H]1CN(C(=O)[C@@](C)(O)C(F)(F)F)CCN1C(=O)C1CCCCC1` .
# output 77
